assay-system: T1, glucose-dependent insulinotropic peptide (gastric inhibitory polypeptide) receptor (human, UniProt P48546 22-466)
T1 sequence (looked up): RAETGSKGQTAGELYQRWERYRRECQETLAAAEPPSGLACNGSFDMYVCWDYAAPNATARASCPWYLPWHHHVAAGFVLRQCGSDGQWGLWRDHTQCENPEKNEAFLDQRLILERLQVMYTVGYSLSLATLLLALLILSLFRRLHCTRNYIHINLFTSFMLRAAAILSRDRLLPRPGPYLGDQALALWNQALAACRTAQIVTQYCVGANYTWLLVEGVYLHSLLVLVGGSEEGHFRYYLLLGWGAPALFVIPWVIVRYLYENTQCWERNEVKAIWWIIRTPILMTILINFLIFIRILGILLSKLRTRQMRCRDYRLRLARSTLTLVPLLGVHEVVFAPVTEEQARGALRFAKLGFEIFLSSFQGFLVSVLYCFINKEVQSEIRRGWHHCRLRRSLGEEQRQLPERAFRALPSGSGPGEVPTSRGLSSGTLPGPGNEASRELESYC
assay-remarks: cell-based or functional assay
Starred links: 1 amine or outer side, 2 acyl side, 3 side chain; linkers in the order of their positions; H or OH if unused. Non-standard residues stand in square brackets, D forms with d. Groups on a side chain read outwards from the residue. Primed or numbered codes have the meaning given here. No end group written: not given here. *: point of attachment. γGlu = O=C(O)[C@H](CCC(=O)[*:2])N[*:1]; Stearoyl = CCCCCCCCCCCCCCCCCC(=O)*; αMeF = C[C@](N)(Cc1ccccc1)C(=O)O; αMeK = C[C@](N)(CCCCN)C(=O)O; αMeS = C[C@](N)(CO)C(=O)O; PEG2′ = not defined here; Aib = CC(C)(N)C(=O)O
The binders listed here are annotated with their Primary assay EC50 (cAMP), n1.

{"binder": "H[Aib]EGS[αMeF]TSDV[αMeS]S[αMeF]LEGEAAK([PEG2′-PEG2′-γGlu-Stearoyl])E[αMeF]IA[αMeF]VV[αMeK]GG-NH2 [SEQ ID NO 3]", "Primary assay EC50 (cAMP), n1 / nM": 25}
{"binder": "H[Aib]EGS[αMeF]TSDV[αMeS]SYLEGEAAK([PEG2′-PEG2′-PEG2′-Stearoyl])E[αMeF]IA[αMeF]VV[αMeK]GG-NH2 [SEQ ID NO 53]", "Primary assay EC50 (cAMP), n1 / nM": 26}
{"binder": "H[Aib]EGS[αMeF]TSDVSS[αMeF]LEGEAAK([PEG2′-PEG2′-PEG2′-Stearoyl])E[αMeF]IA[αMeF]VV[αMeK]GG-NH2 [SEQ ID NO 52]", "Primary assay EC50 (cAMP), n1 / nM": 26}
{"binder": "H[Aib]EGS[αMeF]TSDV[αMeS]S[αMeF]LEGEAAKEFIK([PEG2′-PEG2′-γGlu-Stearoyl])WVVEGG-NH2 [SEQ ID NO 65]", "Primary assay EC50 (cAMP), n1 / nM": 25.1}
{"binder": "H[Aib]EGS[αMeF]TSDV[αMeS]SYLEGEAAK([PEG2′-PEG2′-γGlu-Stearoyl])E[αMeF]IA[αMeF]VV[αMeK]GG-NH2 [SEQ ID NO 47]", "Primary assay EC50 (cAMP), n1 / nM": 25}
{"binder": "H[Aib]EGS[αMeF]TSDVSK([PEG2′-PEG2′-PEG2′-Stearoyl])YLEGEAAEE[αMeF]IA[αMeF]VVEGG-NH2 [SEQ ID NO 62]", "Primary assay EC50 (cAMP), n1 / nM": 25}
{"binder": "H[Aib]EGSFTSDV[αMeS]S[αMeF]LEGEAAK([PEG2′-PEG2′-PEG2′-Stearoyl])E[αMeF]IA[αMeF]VV[αMeK]GG-NH2 [SEQ ID NO 51]", "Primary assay EC50 (cAMP), n1 / nM": 26}
{"binder": "H[Aib]EGS[αMeF]TSDV[αMeS]S[αMeF]LEGEAAK([PEG2′-PEG2′-γGlu-Stearoyl])EFIA[αMeF]VV[αMeK]GG-NH2 [SEQ ID NO 48]", "Primary assay EC50 (cAMP), n1 / nM": 26}
{"binder": "HXEGTFTSDVSSYLEGQAAKEFIAWLVKGRK (Aib 2; K(ε-(PEG)2-(PEG)2-γE-Stearate) after R30; C-terminal amide) [SEQ ID NO 6]", "Primary assay EC50 (cAMP), n1 / nM": 22}
{"binder": "H[Aib]EGS[αMeF]TSDVSK([PEG2′-PEG2′-γGlu-Stearoyl])YLEGEAAEE[αMeF]IA[αMeF]VVEGG-NH2 [SEQ ID NO 58]", "Primary assay EC50 (cAMP), n1 / nM": 25}
